- target: Human Spindlin1 50–262 (SPIN1_(50–262)) (human, UniProt Q9Y657 50-262)
- Sequence (Q9Y657 50-262): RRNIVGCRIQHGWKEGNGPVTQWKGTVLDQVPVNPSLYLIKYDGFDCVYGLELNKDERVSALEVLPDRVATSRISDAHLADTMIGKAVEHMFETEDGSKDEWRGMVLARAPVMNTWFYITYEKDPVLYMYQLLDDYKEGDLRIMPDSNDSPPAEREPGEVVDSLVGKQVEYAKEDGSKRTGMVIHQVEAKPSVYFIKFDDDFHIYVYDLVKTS
- experimental_details: ITC
pKd: −log10 of the molar value. Square brackets hold non-standard residues; d marks the D form. Ends that are not written are not given here. Lys(Me3) = C[N+](C)(C)CCCC[C@H](N)C(=O)O; Arg(Me) = CNC(=N)NCCC[C@H](N)C(=O)O
Each entry below carries its recorded pKd.

Query (binder): ART[Lys(Me3)]QTARKS [H3_(1–10)K4me3 peptide] ; field requested: pKd
~6.83

Which pKd reading was recorded for the binder RRKKKCVRYIQG [TCF4_(458–469) peptide] ?
5.41

Continuing:
For the binder shown here, ART[Lys(Me3)]QTA[Arg(Me)]KS [H3_(1–10)K4me3R8me1 peptide] , give the reported pKd.
~6.86
